The reported numbers originate from patent US20120213844A1.

# test.system: T1, sEGFR-MMB (dimeric sEGFR mimetibody) (human)
# T1 construct: Disulfide-linked homodimer: QIQ, sEGFR, flexible linker, J segment, human IgG1 hinge, CH2, CH3; also called sEGFR-Fc; dimeric EGFR
# T1 sequence (chain, as listed by the source limits assumed): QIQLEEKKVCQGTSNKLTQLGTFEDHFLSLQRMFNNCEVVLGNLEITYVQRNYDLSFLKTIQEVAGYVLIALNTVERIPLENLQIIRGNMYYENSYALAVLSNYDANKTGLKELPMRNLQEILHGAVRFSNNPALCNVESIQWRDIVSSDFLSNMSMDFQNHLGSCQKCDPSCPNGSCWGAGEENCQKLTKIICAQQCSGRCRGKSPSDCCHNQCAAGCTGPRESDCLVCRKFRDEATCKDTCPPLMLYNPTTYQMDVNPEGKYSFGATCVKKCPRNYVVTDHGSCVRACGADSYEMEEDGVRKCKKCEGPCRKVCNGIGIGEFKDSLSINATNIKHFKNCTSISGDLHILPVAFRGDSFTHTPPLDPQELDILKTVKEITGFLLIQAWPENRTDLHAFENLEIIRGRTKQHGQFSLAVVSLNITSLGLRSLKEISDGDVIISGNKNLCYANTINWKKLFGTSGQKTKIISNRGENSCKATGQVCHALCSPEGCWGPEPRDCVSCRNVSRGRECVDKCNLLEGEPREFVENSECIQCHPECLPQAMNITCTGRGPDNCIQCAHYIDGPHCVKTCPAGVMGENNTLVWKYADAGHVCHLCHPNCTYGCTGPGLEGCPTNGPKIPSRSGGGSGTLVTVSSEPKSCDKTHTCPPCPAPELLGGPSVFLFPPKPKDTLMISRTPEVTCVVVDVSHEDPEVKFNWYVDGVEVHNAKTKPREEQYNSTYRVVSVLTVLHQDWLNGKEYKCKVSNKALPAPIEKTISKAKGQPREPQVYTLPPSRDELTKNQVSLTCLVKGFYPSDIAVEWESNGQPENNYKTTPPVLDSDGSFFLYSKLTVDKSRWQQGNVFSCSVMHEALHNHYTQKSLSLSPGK
# assay.remarks: phage ELISA on coated sEGFR-MMB, chemiluminescence (background typically <200 units)
readout.type: ELISA (units)
Give the value, in units of units, as a plain number.

[ask] Please give measured ELISA of the following entry: GGGKHCILFEKTVYCAKGGGSGGSGG (pIX phagemid display, library S18; not shown: M13 phage coat protein pIX (MSVL...)) [phage clone displaying SEQ ID NO: 26 (S18 hit)]
[reply] 9110

[ask] Consider the binder GGGTDCVIFGLETYCLRGGGSGGSGG (pIX phagemid display, library S18; also called PP173; not shown: M13 phage coat protein pIX (MSVL...)) [phage clone P173 (SEQ ID NO: 31)] . State its measured ELISA.
[reply] 37900

[ask] For the binder GGGRACITFGKVVYCEVGGGSGGSGG (pIX phagemid display, library S18; not shown: M13 phage coat protein pIX (MSVL...)) [phage clone displaying SEQ ID NO: 29 (S18 hit)] , give its measured ELISA value.
[reply] 30700

[ask] Return value of ELISA for input GGGRDCIIFDKTVYCVIGGGSGGSGG (pIX phagemid display, library S18; not shown: M13 phage coat protein pIX (MSVL...)) [phage clone displaying SEQ ID NO: 25 (S18 hit)] , no commentary.
[reply] 17100

[ask] State its ELISA: GGGAYCSFVAGDLVCQVGGGSGGSGG (pIX phagemid display, library S18; not shown: M13 phage coat protein pIX (MSVL...)) [phage clone displaying SEQ ID NO: 30 (S18 hit)]
[reply] 19800

[ask] Please look at this binder and report its ELISA: GGGDSCIQFANLLYCAIGGGSGGSGG (pIX phagemid display, library S18; not shown: M13 phage coat protein pIX (MSVL...)) [phage clone displaying SEQ ID NO: 27 (S18 hit)]
[reply] 53200
